study-target: hGcgR (Homo sapiens)
Sequence (P47871 26-477): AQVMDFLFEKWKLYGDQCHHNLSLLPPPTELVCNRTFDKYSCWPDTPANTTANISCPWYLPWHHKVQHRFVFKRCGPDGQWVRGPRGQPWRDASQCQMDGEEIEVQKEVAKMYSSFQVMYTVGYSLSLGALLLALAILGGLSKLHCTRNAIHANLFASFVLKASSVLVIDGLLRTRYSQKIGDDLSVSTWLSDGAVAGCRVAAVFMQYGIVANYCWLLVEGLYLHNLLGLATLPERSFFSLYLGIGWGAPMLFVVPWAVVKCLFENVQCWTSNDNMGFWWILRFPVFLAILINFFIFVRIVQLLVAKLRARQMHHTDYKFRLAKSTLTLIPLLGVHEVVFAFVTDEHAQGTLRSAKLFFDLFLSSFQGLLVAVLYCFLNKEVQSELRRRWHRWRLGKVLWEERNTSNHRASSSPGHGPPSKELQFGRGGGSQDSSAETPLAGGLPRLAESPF
method: Functional cAMP activation in the presence of 0.1% casein (no HSA)
Type: cell-based
study-conditions: in the presence of 0.1% casein (no HSA); geometric mean; read-out: Relative cAMP EC50, hGcgR
Starred links: 1 amine or outer side, 2 acyl side, 3 side chain; linkers in the order of their positions; H or OH if unused. Non-standard residues stand in square brackets, D forms with d. Groups on a side chain read outwards from the residue. No end group written: not given here. *: point of attachment. C18 diacid = O=C(O)CCCCCCCCCCCCCCCCC(=O)*; αMePhe(2-F) = C[C@](N)(Cc1ccccc1F)C(=O)O; γGlu = O=C(O)[C@H](CCC(=O)[*:2])N[*:1]; αMe4Pal = C[C@](N)(Cc1ccncc1)C(=O)O; αMeY = C[C@](N)(Cc1ccc(O)cc1)C(=O)O; αMeF = C[C@](N)(Cc1ccccc1)C(=O)O; 4Pal = N[C@@H](Cc1ccncc1)C(=O)O; αMeL = CC(C)C[C@](C)(N)C(=O)O; αMeS = C[C@](N)(CO)C(=O)O; Orn = NCCC[C@H](N)C(=O)O; AEEA = NCCOCCOCC(=O)O; Aib = CC(C)(N)C(=O)O
# EC50 annotations
Write down the numeric answer in nM and omit the unit.

// below: answered substances
substance	study-target	EC50 [nM]
Y[Aib]QGT[αMeF]TSD[4Pal][αMeS]I[αMeL]LD[Orn]K([AEEA-γGlu-C18 diacid])AQ[αMe4Pal]EFI[dE][αMeY]LIEGGPSSGEPPPSGE-NH2 [Example 1165]	hGcgR (Homo sapiens)	2.68
H-Y[Aib]QGT[αMePhe(2-F)]TSD[4Pal][αMeS]I[αMeL]LD[Orn]K([γGlu-γGlu-C18 diacid])AQ[αMe4Pal]EFI[dE][αMeY]LVEGGPSSGEPPPSGE-NH2 [Example 1161]	hGcgR (Homo sapiens)	2.19

Now turn to the next substance.
Ask | Bench note: what EC50 did H-Y[Aib]QGTFTSD[4Pal]SQ[αMeL]LDKK([AEEA-γGlu-C18 diacid])AQ[αMe4Pal]AFIEYLIE[Aib]GPSSGAPPPSGSGE-NH2 [Example 888] show?
Reply | 30.1

====

study-target: hGcgR (Homo sapiens)
method: Functional cAMP activation in the presence of 0.1% casein (no HSA);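 further: intracellular cAMP rise after 30 min at 37 °C, read by HTRF against a cAMP standard curve, scaled from buffer only (0%) to maximal control ligand response (100%)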
Type: cell-based
study-conditions: in the presence of 0.1% casein (no HSA); geometric mean; read-out: Relative cAMP EC50, hGcgR
Starred links: 1 amine or outer side, 2 acyl side, 3 side chain; linkers in the order of their positions; H or OH if unused. Non-standard residues stand in square brackets, D forms with d. Groups on a side chain read outwards from the residue. *: point of attachment. C20 diacid = O=C(O)CCCCCCCCCCCCCCCCCCC(=O)*; C18 diacid = O=C(O)CCCCCCCCCCCCCCCCC(=O)*; Phe(4-CN) = N#Cc1ccc(C[C@H](N)C(=O)O)cc1; αMePhe(2-F) = C[C@](N)(Cc1ccccc1F)C(=O)O; γGlu = O=C(O)[C@H](CCC(=O)[*:2])N[*:1]; αMe4Pal = C[C@](N)(Cc1ccncc1)C(=O)O; αMeY = C[C@](N)(Cc1ccc(O)cc1)C(=O)O; 4Pal = N[C@@H](Cc1ccncc1)C(=O)O; αMeL = CC(C)C[C@](C)(N)C(=O)O; αMeS = C[C@](N)(CO)C(=O)O; Orn = NCCC[C@H](N)C(=O)O; AEEA = NCCOCCOCC(=O)O; Aib = CC(C)(N)C(=O)O
measured-attribute: pEC50
Convention used: pEC50 is expressed as -log10 of the molar concentration.

// below: answered substances
substance	pEC50
H-Y[Aib]QGT[αMePhe(2-F)]TSD[4Pal][αMeS]I[αMeL]LD[Orn]K([AEEA-γGlu-γGlu-C18 diacid])AQ[αMe4Pal]EFI[dE][αMeY]LIEGGPSSGAPPPSGSE-NH2 [Example 1178]	8.51
H-Y[Aib]QGTFTSDFS[Orn][αMeL]LDKK([AEEA-γGlu-C20 diacid])AQ[Aib]AFIEWLLEGGPSSGAPPPEGE-NH2 [Example 101]	8.00
H-Y[Aib]QGTFTSDYSI[αMeL]LDKQAAK([AEEA-AEEA-γGlu-C20 diacid])QFVNWLLA[Aib]GPSSGEPPPSEG-NH2 [Example 325]	8.61
H-Y[Aib]QGT[αMePhe(2-F)]TSD[Phe(4-CN)]SILLDKQAQK([AEEA-AEEA-γGlu-C20 diacid])AFIEYLLEGGPSSGEPPPSAG-NH2 [Example 350]	7.98
H-Y[Aib]QGT[αMePhe(2-F)]TSD[Phe(4-CN)]SILLDKQAQK([AEEA-AEEA-γGlu-C20 diacid])AFIEYLLEGGPSSGEPPPSEG-NH2 [Example 321]	8.35

Ask | Bench note: what pEC50 did H-Y[Aib]QGTFTSDFSK[αMeL]LDKK([AEEA-γGlu-C20 diacid])AQ[Aib]AFIEYLLAGGPSSGAPPPSGS-NH2 [Example 14] show?
Reply | 8.14
